Overview of recorded protein stability index for various variants
B1: TFE3 (parent)
chain: FPSDHLGDLGDPFHLGLEDILMEE

Variants of: B1
Assay: protein stability index of a GFP-peptide fusion (GPS, HEK-293T) (PSI 1-6); higher = more stable;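 note: lentivirally expressed fusions sorted by FACS into six bins by GFP to DsRed ratio, PSI derived from sequencing read proportions per bin multiplied by bin number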
Settings: c terminus: a fixed tail appended
observedProperty: protein stability index

1) P12A :: 3.11
2) L6I :: 3.37
3) L15P :: 3.7
4) S3P :: 3.79
5) H14N :: 3.67
6) L21P :: 4.18
7) L21A :: 4.03
8) E18L :: 1.98
9) F1K :: 4.41
10) I20K :: 4.05
11) E23L :: 2.44
12) L9G :: 3.54
13) L15S :: 3.67
14) G7A :: 3.94
15) F1C :: 5.03
16) P2R :: 3.52
17) G16S :: 3.26
18) H14L :: 3.38
19) G16P :: 3.35
20) M22R :: 3.33
21) H14M :: 3.74
22) D8C :: 2.88
23) G10Q :: 3.05
24) H5L :: 3.3
25) H5Q :: 3.85
26) D11K :: 3.42
27) S3V :: 2.56
28) E23K :: 3.34
29) H14C :: 2.66
30) D8G :: 3.09
31) D19A :: 2.1
32) E18C :: 2.18
33) G7T :: 3.3
34) L17S :: 3.86
35) G7D :: 4.3
36) L17E :: 4.11
37) G7N :: 3.43
38) M22I :: 3.35
39) L15M :: 3.35
40) F13V :: 4.89
41) S3N :: 3.16
42) F13P :: 4.91
43) E18W :: 2.65
44) E23F :: 2.42
45) M22L :: 3.24
46) E24W :: 1.8
47) D4G :: 2.49
48) L9Y :: 3.29
49) D19E :: 3.2
50) H5K :: 2.83
51) L6A :: 3.69
52) L21W :: 3.14
53) S3H :: 2.91
54) G10P :: 3.47
55) P12T :: 4.24
56) H5E :: 4.15
57) L15R :: 3.61
58) D19V :: 1.97
59) L17Q :: 3.55
60) G10F :: 2.54
61) E24P :: 2.77
62) H14P :: 4.66
63) L17T :: 3.47
64) L21F :: 3.28
65) G16Q :: 3.6
66) D11F :: 2.66
67) E24Y :: 2.35
68) S3L :: 3.04
69) H14W :: 2.27
70) D4N :: 3.22
71) E24R :: 2.87
72) L6M :: 3.71
73) L6V :: 3.81
74) D8P :: 3.31
75) F13E :: 5.21
76) F13Y :: 2.82
77) L17A :: 3.92
78) F13C :: 4.62
79) L9E :: 4
80) P12W :: 2.71
81) I20E :: 4.2
82) F1T :: 4.74
